- EXPERIMENTAL_TARGET: canine TRPM8 (Canis lupus familiaris)
- Sequence (Q1A7N1 1-1104): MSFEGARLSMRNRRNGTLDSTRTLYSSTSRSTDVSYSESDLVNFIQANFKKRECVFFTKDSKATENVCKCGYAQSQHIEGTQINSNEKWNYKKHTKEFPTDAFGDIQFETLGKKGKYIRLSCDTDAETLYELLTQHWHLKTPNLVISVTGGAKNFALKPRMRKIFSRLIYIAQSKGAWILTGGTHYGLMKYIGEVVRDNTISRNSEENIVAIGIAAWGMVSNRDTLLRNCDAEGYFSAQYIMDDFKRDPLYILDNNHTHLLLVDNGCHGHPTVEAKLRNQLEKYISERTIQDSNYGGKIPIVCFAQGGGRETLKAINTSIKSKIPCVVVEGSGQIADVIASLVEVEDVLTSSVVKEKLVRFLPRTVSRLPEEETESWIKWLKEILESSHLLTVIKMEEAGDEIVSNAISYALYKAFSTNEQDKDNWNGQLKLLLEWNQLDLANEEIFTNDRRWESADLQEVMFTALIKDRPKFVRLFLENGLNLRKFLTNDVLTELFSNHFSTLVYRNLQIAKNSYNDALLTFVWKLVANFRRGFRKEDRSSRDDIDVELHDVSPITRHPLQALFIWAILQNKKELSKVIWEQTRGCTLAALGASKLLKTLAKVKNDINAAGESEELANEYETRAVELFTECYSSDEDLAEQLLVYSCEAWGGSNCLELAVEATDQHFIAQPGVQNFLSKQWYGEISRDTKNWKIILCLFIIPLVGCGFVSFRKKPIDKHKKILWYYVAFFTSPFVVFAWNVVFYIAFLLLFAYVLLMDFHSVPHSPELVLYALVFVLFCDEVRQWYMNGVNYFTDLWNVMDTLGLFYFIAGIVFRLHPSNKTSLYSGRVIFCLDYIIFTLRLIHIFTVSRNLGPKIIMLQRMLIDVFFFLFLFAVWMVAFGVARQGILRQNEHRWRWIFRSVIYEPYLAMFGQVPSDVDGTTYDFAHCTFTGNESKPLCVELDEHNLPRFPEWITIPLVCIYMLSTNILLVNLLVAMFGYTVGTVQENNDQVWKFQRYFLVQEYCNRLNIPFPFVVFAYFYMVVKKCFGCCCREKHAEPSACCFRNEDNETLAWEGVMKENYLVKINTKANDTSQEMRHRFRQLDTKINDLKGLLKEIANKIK
- ASSAY_SUMMARY: In Vitro Canine TRPM8 Functional Assay (Ca2+ fluorescence, icilin activation)
- Assay type: cell-based
- MEASUREMENT_CONTEXT: HEK293 cells stably expressing canine TRPM8; icilin activation; eight-point dose-response; read-out: IC50
pIC50: −log10 of the molar value.
PARAMETER: pIC50

>>> number("Cc1c(N(Cc2ccc(F)c(F)c2)S(=O)(=O)c2cccc3cccnc23)sc2ccccc12")
8.22

A. Cc1c(N(Cc2ccc(F)c(F)c2)S(=O)(=O)c2cccc(F)c2)sc2ccccc12
B. Cc1c(N(CCC2CC2)S(=O)(=O)c2ccc(-c3nsc(=O)[nH]3)cc2)sc2ccccc12
Sorting ascending by pIC50, which comes first: A or B ? Pick one; state its label.
B

Numbers sourced from patent US9434711B2.
